system: HEK-293T; assay: Multiplex assay against HEK293T; assay type: toxicity, cell-based; settings: human, 12 h, 1 µM, compound concentration 1 uM, replicate 2
READOUT NAME: Population Tubulin-Different-Phenotype (%)

>>> test_value("COc1cc(Nc2ncc3c(n2)-c2ccc(Cl)cc2C(c2c(F)cccc2OC)=NC3)ccc1C(=O)O [ALISERTIB]")
49
>>> test_value("CN1CCC(C(=O)c2cccc(NC(=O)c3c(F)cc(F)cc3F)n2)CC1")
20
>>> test_value("Cc1cc(=O)n(C)c2cc(N3C(=O)CC[C@H](NS(=O)(=O)CC(C)C)[C@H]3c3ccc(Cl)cc3)ccc12")
14
>>> test_value("Cc1cc(O)c(-c2ccc([C@@H](C)CN(C)C)cc2)c2c1[nH]c(=O)c1sccc12")
74

---

tested on: HEK-293T; assay: Multiplex assay against HEK293T; assay type: toxicity, cell-based; conditions: human, 12 h, 1 µM, compound concentration 1 uM, replicate 1
READOUT NAME: Population Pyknosed Nuclei (%)

>>> test_value("Nc1nc(CC(=O)Nc2ccc(CCNC[C@H](O)c3ccccc3)cc2)cs1")
10
>>> test_value("CCC(=O)OCC(=O)[C@@]1(OC(=O)CC)[C@@H](C)C[C@H]2[C@@H]3CCC4=CC(=O)C=C[C@]4(C)[C@@]3(Cl)[C@@H](O)C[C@@]21C [BECLOMETHASONE DIPROPIONATE]")
15
>>> test_value("O=c1ccc2ccc(OCCCCN3CCN(c4cccc5sccc45)CC3)cc2[nH]1")
15
>>> test_value("Cc1cc(-c2ccc3c(c2)CC[C@H]3N2CC3(CCN(C(=O)Cc4cn5cc(C)sc5n4)CC3)C2)ncn1")
11

---

system: HEK-293T; experiment: Multiplex assay against HEK293T; assay type: toxicity, cell-based; settings: human, 24 h, 1 µM, compound concentration 1 uM, replicate 1
READOUT NAME: Population Fragmented Nuclei (%)

>>> test_value("CN1CCN2c3ccccc3Cc3ccccc3C2C1.Cl (stereo not drawn) [MIANSERIN HYDROCHLORIDE]")
"9%"
>>> test_value("Nc1nc(-c2ccco2)c2cnn(Cc3ccccc3F)c2n1")
"7%"
>>> test_value("O=c1ccc2ccc(OCCCCN3CCN(c4cccc5sccc45)CC3)cc2[nH]1 [BREXPIPRAZOLE]")
"10%"

---

# Population Mitochondria Different-Phenotype (%) per entry
system: Fibroblast; test: Multiplex assay against human fibroblast; assay type: toxicity, cell-based; conditions: 12 h, 10 µM, compound concentration 10 uM, replicate 1
READOUT NAME: Population Mitochondria Different-Phenotype (%)

>>> test_value("Cc1cc(=O)n(C)c2cc(N3C(=O)CC[C@H](NS(=O)(=O)CC(C)C)[C@H]3c3ccc(Cl)cc3)ccc12")
8
>>> test_value("N[C@](CC1c2ccccc2Oc2ccccc21)(C(=O)O)[C@H]1C[C@@H]1C(=O)O")
2
>>> test_value("CSc1nc(NC2CCCC2)c([N+](=O)[O-])c(NC2CCCC2)n1")
5
>>> test_value("COc1cc(OC2CCN(C(C)=O)CC2)ccc1C(=O)N1CCC(N2C(=O)OCc3ccccc32)CC1")
6

---

tested on: U2OS; experiment: Multiplex assay against U2OS; format: toxicity, cell-based; conditions: human, 12 h, 10 µM, compound concentration 10 uM, replicate 2
# Total Cell Count per entry
READOUT NAME: Total Cell Count

>>> test_value("S=C(NCCCc1c[nH]cn1)NCCCN(Cc1ccc(Cl)c(Cl)c1)c1ccc(Br)cn1")
82
>>> test_value("Cn1cc(C(=O)OCC2CCN(CCNS(C)(=O)=O)CC2)c2ccccc21")
137
>>> test_value("COc1cc(C(=O)N2CC[C@@H](O)[C@@H](N)C2)cc2nc(-c3cc4ccccc4n3CC3CC3)n(C)c12.Cl")
120
>>> test_value("COc1ccc2c(c1OCc1ccccc1)C[C@@H](C(=O)O)N(C(=O)C(c1ccccc1)c1ccccc1)C2")
110
>>> test_value("CN1CCC(C(=O)c2cccc(NC(=O)c3c(F)cc(F)cc3F)n2)CC1")
103
>>> test_value("C=CCN1C[C@H](C(=O)N(CCCN(C)C)C(=O)NCC)C[C@@H]2c3cccc4[nH]cc(c34)C[C@H]21")
143
>>> test_value("O=c1nc2[nH]c3ccccc3nc-2c(=O)[nH]1")
119
>>> test_value("CC(C)(O)C(=O)N1CCN(c2ccc(C(F)(F)F)c(C3=C(c4c[nH]c5ccccc45)C(=O)NC3=O)c2)CC1")
148
>>> test_value("CN1C[C@H](C(=O)N[C@]2(C)O[C@@]3(O)[C@@H]4CCCN4C(=O)[C@H](Cc4ccccc4)N3C2=O)C[C@@H]2c3cccc4[nH]cc(c34)C[C@H]21.CS(=O)(=O)O [DIHYDROERGOTAMINE MESYLATE]")
144
>>> test_value("Cc1cc(=O)n(C)c2cc(N3C(=O)CC[C@H](NS(=O)(=O)CC(C)C)[C@H]3c3ccc(Cl)cc3)ccc12")
83
>>> test_value("N[C@](CC1c2ccccc2Oc2ccccc21)(C(=O)O)[C@H]1C[C@@H]1C(=O)O")
141
>>> test_value("C[C@H](NC(=O)CNC(=O)c1cccc(Cl)c1)c1ccccc1")
150
>>> test_value("COc1cc2nc(N3CCN(C(=O)c4ccco4)CC3)nc(N)c2cc1OC.Cl [PRAZOSIN HYDROCHLORIDE]")
114
>>> test_value("CN1CCN2c3ccccc3Cc3ccccc3C2C1.Cl (configuration not stated) [MIANSERIN HYDROCHLORIDE]")
152
>>> test_value("COc1cc2nc(N3CCN(C(=O)COc4c(OC)cccc4C(C)C)CC3)nc(N)c2cc1OC.Cl.Cl")
151
>>> test_value("OCCCNc1cc(-c2ccnc(Nc3cccc(Cl)c3)n2)ccn1")
118
>>> test_value("O=C(O)CCC/C=C\\CC1C(O)CC(O)C1/C=C/C(O)COc1cccc(Cl)c1 (configuration not stated)")
131
>>> test_value("CSc1nc(NC2CCCC2)c([N+](=O)[O-])c(NC2CCCC2)n1")
145
>>> test_value("O=c1ccc2ccc(OCCCCN3CCN(c4cccc5sccc45)CC3)cc2[nH]1")
109
>>> test_value("CCc1nn2c(C)cc(C)nc2c1Cc1ccc(-c2nnc(C3CCNCC3)o2)cc1")
129
>>> test_value("Cc1c(Cc2ccc3ccccc3n2)c2cc(F)ccc2n1CC(=O)O")
132
>>> test_value("COc1c(Nc2ccc(S(C)(=O)=O)nc2C)ncnc1OC1CCN(C(=O)OC(C)C)CC1")
128
>>> test_value("CCCCCCNC(=O)Nc1ccc(S(=O)(=O)Nc2ccc(CCNC[C@H](O)COc3ccc(O)cc3)cc2)cc1")
140
>>> test_value("Nc1nc(CC(=O)Nc2ccc(CCNC[C@H](O)c3ccccc3)cc2)cs1")
136
>>> test_value("C[C@@H]1CC(=O)Nc2cccc(-c3ccc4c(c3)c(-c3cnn(C)c3)nn4C)c2N1")
76
>>> test_value("CCC(=O)OCC(=O)[C@@]1(OC(=O)CC)[C@@H](C)C[C@H]2[C@@H]3CCC4=CC(=O)C=C[C@]4(C)[C@@]3(Cl)[C@@H](O)C[C@@]21C [BECLOMETHASONE DIPROPIONATE]")
109
>>> test_value("CC(C)(C)c1ccc(CSc2cnn(C(C)(C)C)c(=O)c2Cl)cc1")
141

---

tested on: HEK-293T; assay: Multiplex assay against HEK293T; assay type: toxicity, cell-based; details: human, 48 h, 1 µM, compound concentration 1 uM, replicate 2
READOUT NAME: Population Pyknosed Nuclei (%)

>>> test_value("CC(C)(C)c1ccc(CSc2cnn(C(C)(C)C)c(=O)c2Cl)cc1")
6
>>> test_value("CCn1c(-c2nc3cc(C(=O)N4CCCC(N)C4)ccc3n2C)cc2ccccc21.Cl (stereo not drawn)")
5
>>> test_value("CN1CCN2c3ccccc3Cc3ccccc3C2C1.Cl (stereo not drawn) [MIANSERIN HYDROCHLORIDE]")
4

---

system: HEK-293T; assay: Multiplex assay against HEK293T; assay type: toxicity, cell-based; conditions: human, 24 h, 10 µM, compound concentration 10 uM, replicate 2
READOUT NAME: Population Normal (%)

>>> test_value("CN1CCN(c2ccc(Nc3c4ccccc4nc4ccccc34)cc2)CC1.Cl.Cl.O")
99
>>> test_value("Nc1nc(-c2ccco2)c2cnn(Cc3ccccc3F)c2n1")
89
>>> test_value("COc1cc(C(=O)N2CC[C@@H](O)[C@@H](N)C2)cc2nc(-c3cc4ccccc4n3CC3CC3)n(C)c12.Cl")
78
>>> test_value("COCCCN1CCC(NC(=O)c2cc(Cl)c(N)c3c2OCC3)CC1 [PRUCALOPRIDE]")
90
>>> test_value("CCn1c(-c2nc3cc(C(=O)N4CCCC(N)C4)ccc3n2C)cc2ccccc21.Cl (stereo not drawn)")
90
>>> test_value("Cc1cc(NC(=O)NCCN2CCC(O)(Cc3ccccc3)CC2)c2ccccc2n1")
93
>>> test_value("CN1C[C@H](C(=O)N[C@]2(C)O[C@@]3(O)[C@@H]4CCCN4C(=O)[C@H](Cc4ccccc4)N3C2=O)C[C@@H]2c3cccc4[nH]cc(c34)C[C@H]21.CS(=O)(=O)O [DIHYDROERGOTAMINE MESYLATE]")
93
>>> test_value("C[C@@H]1CC(=O)Nc2cccc(-c3ccc4c(c3)c(-c3cnn(C)c3)nn4C)c2N1")
94
>>> test_value("CN1CCC(C(=O)c2cccc(NC(=O)c3c(F)cc(F)cc3F)n2)CC1")
91
>>> test_value("COc1cc2nc(N3CCN(C(=O)COc4c(OC)cccc4C(C)C)CC3)nc(N)c2cc1OC.Cl.Cl")
60
>>> test_value("CN(C)C(=O)Cn1cc(-c2ccc(-c3nnc4ccccn34)cc2)cn1")
92
>>> test_value("CN1CCN2c3ccccc3Cc3ccccc3C2C1.Cl (stereo not drawn) [MIANSERIN HYDROCHLORIDE]")
96
>>> test_value("O=C(Nc1cc(-c2ccccc2)nn1-c1ccccc1F)c1ccc([N+](=O)[O-])cc1")
96
>>> test_value("C[C@H](NC(=O)CNC(=O)c1cccc(Cl)c1)c1ccccc1")
90
>>> test_value("CCCCC[C@H](O)/C=C/[C@H]1[C@H](O)CC(=O)[C@@H]1CCCCCCC(=O)O")
91
>>> test_value("CC(C)(C)c1ccc(CSc2cnn(C(C)(C)C)c(=O)c2Cl)cc1")
76
>>> test_value("Cn1cc(C(=O)OCC2CCN(CCNS(C)(=O)=O)CC2)c2ccccc21")
93
>>> test_value("Cc1ccc(OCC(O)C(C)NC(C)C)c2c1CCC2.Cl (stereo not drawn)")
88
